- target-entity: T1, human MSLN-R2-his protein (human, UniProt Q13421 391-486)
- T1 construct: also called human MSLN-R2 protein; hMSLN-R2-his; not shown: His tag
- T1 sequence (Q13421 other isoform, or with tags, fused parts or gaps): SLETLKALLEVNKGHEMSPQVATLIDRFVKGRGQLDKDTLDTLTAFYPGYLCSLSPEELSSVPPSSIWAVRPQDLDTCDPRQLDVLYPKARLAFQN
- test-method-notes: ELISA, coated antigen; antibody 100 nM
Measured OD450 values are reported for all entries that follow.

{"binder": "S009-F5-9.16 (antibody, human IgG1, kappa, V domains shown, Human-murine chimeric antibody, human IgG1/kappa constant regions) VH: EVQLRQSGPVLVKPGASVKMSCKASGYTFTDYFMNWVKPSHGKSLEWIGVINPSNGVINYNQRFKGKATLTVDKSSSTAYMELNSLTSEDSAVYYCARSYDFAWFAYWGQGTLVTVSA VL: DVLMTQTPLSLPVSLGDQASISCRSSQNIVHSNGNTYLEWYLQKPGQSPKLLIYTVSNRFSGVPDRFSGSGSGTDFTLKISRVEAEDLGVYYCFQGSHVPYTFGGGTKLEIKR", "unit-string": "OD450", "OD450": 0.13}
{"binder": "S009-F4-127.10 (antibody, human IgG1, kappa, V domains shown, Human-murine chimeric antibody, human IgG1/kappa constant regions) VH: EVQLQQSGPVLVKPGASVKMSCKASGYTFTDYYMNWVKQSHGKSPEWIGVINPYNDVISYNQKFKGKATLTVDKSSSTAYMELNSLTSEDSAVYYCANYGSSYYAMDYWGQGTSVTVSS VL: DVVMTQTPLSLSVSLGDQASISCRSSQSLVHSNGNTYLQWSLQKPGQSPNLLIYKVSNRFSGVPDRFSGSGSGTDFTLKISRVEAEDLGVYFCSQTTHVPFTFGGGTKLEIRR", "unit-string": "OD450", "OD450": 0.09}
{"binder": "Tab106 (YP218, hIgG1) (antibody, V domains shown, Control antibody: YP218 VH and VL recombined into human IgG1 CH and CL expression vectors; also called YP218 human IgG1 antibody) VH: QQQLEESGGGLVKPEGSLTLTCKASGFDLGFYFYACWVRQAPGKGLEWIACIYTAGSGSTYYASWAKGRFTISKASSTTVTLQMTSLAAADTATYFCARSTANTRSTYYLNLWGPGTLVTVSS VL: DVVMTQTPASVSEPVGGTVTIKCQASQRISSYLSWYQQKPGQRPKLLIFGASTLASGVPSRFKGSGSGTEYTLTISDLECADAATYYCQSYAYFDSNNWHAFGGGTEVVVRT", "unit-string": "OD450", "OD450": 2.07}
{"binder": "S009-F4-94.15 (antibody, human IgG1, kappa, V domains shown, Human-murine chimeric antibody, human IgG1/kappa constant regions) VH: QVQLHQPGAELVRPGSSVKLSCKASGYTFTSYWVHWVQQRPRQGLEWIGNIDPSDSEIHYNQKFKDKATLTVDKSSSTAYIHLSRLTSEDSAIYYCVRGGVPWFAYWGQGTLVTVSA VL: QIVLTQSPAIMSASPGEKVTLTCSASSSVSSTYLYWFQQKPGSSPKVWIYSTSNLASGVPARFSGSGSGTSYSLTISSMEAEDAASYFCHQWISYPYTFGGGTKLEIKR", "unit-string": "OD450", "OD450": 0.07}

Data origin: patent US20250250357A1
